- protocol: aqueous solubility and chemical stability of Example 47
- Assay type: physicochemical
- particulars: aqueous media; across full pH range
experimentalEndpoint: solubility

So what's the measured solubility for this one? Cc1ccc(CCc2cnc3c(N)nc4ccccc4c3c2)c(C)c1 [Example 47] < 0.5 µg/mL
